Collected EC50 values appear next to each entry.
Biological target: T1, cynomolgus monkey CD73 (on transfected CHOK1 cells) (cynomolgus monkey, UniProt A0A2K5V5U7 27-549)
T1 construct: whole, on cells; also called CHOK1-cCD73; CHOK1-CCD73
T1 sequence: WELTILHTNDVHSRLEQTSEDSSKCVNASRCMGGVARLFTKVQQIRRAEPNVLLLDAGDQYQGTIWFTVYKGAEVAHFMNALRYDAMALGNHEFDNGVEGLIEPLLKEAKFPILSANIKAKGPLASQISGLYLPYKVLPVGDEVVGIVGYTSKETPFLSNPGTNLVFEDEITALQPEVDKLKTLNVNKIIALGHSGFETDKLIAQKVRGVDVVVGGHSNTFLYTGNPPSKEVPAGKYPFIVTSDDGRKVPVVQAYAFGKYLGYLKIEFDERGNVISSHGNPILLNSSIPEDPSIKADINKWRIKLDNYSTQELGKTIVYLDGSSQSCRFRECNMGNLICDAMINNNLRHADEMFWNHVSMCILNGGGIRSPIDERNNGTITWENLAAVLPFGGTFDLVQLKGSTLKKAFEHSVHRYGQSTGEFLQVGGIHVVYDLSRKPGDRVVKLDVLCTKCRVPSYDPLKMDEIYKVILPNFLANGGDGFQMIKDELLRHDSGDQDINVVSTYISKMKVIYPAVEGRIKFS
Test: FACS on CHOK1-cCD73 cells
Report the figure in nM without appending any unit label.

Answered cases to consult:
{"binder": "mAb030 (clone 42A5A7), murine anti-CD73 antibody (antibody, V domains shown, Purified from hybridoma supernatant; also called antibody 030) VH: DIQLQESGPGLVKPSQSLSLTCSVTGYSITSRYYWNWIRQFPGNKLEWMGYITYDDNNNYNPSLKNRISITRDTSKNQFFLKLNSVTPEDTATYYCARGGWDPFLYWGQGTLVTVSA VL: DIQMTQSPASLSASVGETVTITCRASDNIYSYLAWYQQKQGKSLQLLVDSAKNLGEGVPSRFSGSGSGTQFYLKINSLQPEDFGVYYCQHYYGTPFTFGGGTKLELK", "observed-value": 0.4}
{"binder": "mAb020 (clone 24D6B4), murine anti-CD73 antibody (antibody, V domains shown, Purified from hybridoma supernatant) VH: EVQLQQSGPELVKPGASVKIPCKASGYTFTDYNMDWVKQRHGKSLEWIGDINPNNGGTVYNQKFKGKATLTVDKSSNTAYMELRSLTSEDTAVYYCARISGTGYWYFDVWGTGTTVTVSS VL: DIQMTQSPASLSVSVGETVTITCRASENIYSNLAWYQQKQGKSPQLLVYGATNLADGVPSRFSGSDSGTQYSLKINSLQSEDFGSYYCQHFWGTPWTFGGGTKLEIK", "observed-value": 3.4}

Using the record for mAb041 (clone 71E10B3), murine anti-CD73 antibody (antibody, V domains shown, Purified from hybridoma supernatant) VH: QVQLQQPGTELVKPGASVKLSCKASGYTFTSYWMHWVKQRPGQGLEWIGNINPSNGGTNYNQKFKSKATLTVDKSSNTASMQLSSLTSEDSAVYYCARGDYGYDWYLDVWGTGTTVTVSS VL: DIVLTQSPASLAVSLGQRAIISCKASQSVSFAGPSLMHWYQQKPGQQPKLLIYRTSNLEAGVPTRFSGSGSGTDFTLNIHPVEEDDAATYYCQQNREFPWTFGGGTKLEIK , state its measured EC50. 1.9
